test system: platelets on solid phase fibrinogen; assay: Effect of compound on platelet stretching on solid phase fibrinogen; format: cell-based; conditions: 1 h, washed platelets, incubated 60 min at 37° C., read-out: Concentration range for compounds that inhibit platelet stretching on fibrinogen
Reported property: minimal effective concentration

I looked up "CCOC(=O)c1c(CNC(=N)N)n(C)c2ccc(C3CCCC3)cc12" and its minimal effective concentration for platelets on solid phase fibrinogen was 10 to 100 µM

I looked up "CCOC(=O)c1c(CNC(=N)N)n(C)c2cc(C3CCC(F)(F)CC3)ccc12" and its minimal effective concentration for platelets on solid phase fibrinogen was 10 to 100 µM

I looked up "CCOC(=O)c1c(CNC(=N)N)n(C)c2cc(-c3c4ccccc4cc4ccccc34)ccc12" and its minimal effective concentration for platelets on solid phase fibrinogen was 10 to 100 µM

I looked up "CCOC(=O)c1c(CNC(=N)N)n(C)c2cc(-c3cncc4ccccc34)ccc12" and its minimal effective concentration for platelets on solid phase fibrinogen was 10 to 100 µM

I looked up "CCOC(=O)c1c(CNC(=N)N)n(C)c2cc(-c3cccc4c(F)cccc34)ccc12" and its minimal effective concentration for platelets on solid phase fibrinogen was 10 to 100 µM

I looked up "CCOC(=O)c1c(CNC(=N)N)sc2cc(-c3cccc4ccccc34)c(Oc3ccccc3)cc12" and its minimal effective concentration for platelets on solid phase fibrinogen was 100 to 250 µM

I looked up "CCOC(=O)c1c(CSC(=N)N)n(C)c2ccc3ccccc3c12" and its minimal effective concentration for platelets on solid phase fibrinogen was 10 to 100 µM

I looked up "CCOC(=O)c1c(CNC(=N)N)n(C)c2cc(OC3CCCC3)c(-c3cccc4ccccc34)cc12" and its minimal effective concentration for platelets on solid phase fibrinogen was 10 to 100 µM

I looked up "CCOC(=O)c1c(CNC(=N)N)n(C)c2cc(-c3cccc4ccncc34)ccc12" and its minimal effective concentration for platelets on solid phase fibrinogen was 10 to 100 µM

I looked up "CCOC(=O)c1c(CNC(=N)N)n(C)c2ccc(C3=CCCC3)cc12" and its minimal effective concentration for platelets on solid phase fibrinogen was 100 to 250 µM

I looked up "CCOC(=O)c1c(CNC(=N)N)n(C)c2ccc(C3=CCCc4ccccc43)cc12" and its minimal effective concentration for platelets on solid phase fibrinogen was 10 to 100 µM

I looked up "CNC(=O)c1c(CNC(=N)N)n(C)c2cc(-c3cccc4ccccc34)ccc12" and its minimal effective concentration for platelets on solid phase fibrinogen was 10 to 100 µM

I looked up "CCOC(=O)c1c(CNC(=N)N)n(C)c2cc(-c3cccc4c(C)cccc34)ccc12" and its minimal effective concentration for platelets on solid phase fibrinogen was 10 to 100 µM

I looked up "CCOC(=O)c1c(CNC(=N)N)n(C)c2cccnc12" and its minimal effective concentration for platelets on solid phase fibrinogen was 100 to 250 µM

I looked up "CCOC(=O)c1c(CNC(=N)N)n(C)c2cc(-c3cccc4cccnc34)ccc12" and its minimal effective concentration for platelets on solid phase fibrinogen was 10 to 100 µM

I looked up "CCOC(=O)c1c(CNC(=N)N)n(C)c2cc(-c3cccc4ccccc34)c(OC)cc12" and its minimal effective concentration for platelets on solid phase fibrinogen was 100 to 250 µM

I looked up "CCOC(=O)c1c(CNC(=N)N)n(C)c2cc(-c3ccnc4ccccc34)ccc12" and its minimal effective concentration for platelets on solid phase fibrinogen was 10 to 100 µM

I looked up "CCOC(=O)c1c(CNC(=N)N)n(C)c2cc(Br)c(-c3cccc4ccccc34)cc12" and its minimal effective concentration for platelets on solid phase fibrinogen was 10 to 100 µM

I looked up "COc1ccc2c(n1)c(C(N)=O)c(CNC(=N)N)n2C" and its minimal effective concentration for platelets on solid phase fibrinogen was 100 to 250 µM

I looked up "CCOC(=O)c1c(CNC(=N)N)n(C)c2cc(-c3cc(F)cc4ccccc34)ccc12" and its minimal effective concentration for platelets on solid phase fibrinogen was 100 to 250 µM

I looked up "CCOC(=O)c1c(CNC(=N)N)n(C)c2cc(Br)cnc12" and its minimal effective concentration for platelets on solid phase fibrinogen was 10 to 100 µM

I looked up "CCOC(=O)c1c(CNC(=N)N)n(C)c2cc(-c3ccccc3)ccc12" and its minimal effective concentration for platelets on solid phase fibrinogen was 10 to 100 µM

I looked up "COc1cnc2c(c1)c(C(N)=O)c(CNC(=N)N)n2C" and its minimal effective concentration for platelets on solid phase fibrinogen was 10 to 100 µM

I looked up "CCOC(=O)c1c(CNC(=N)N)n(C)c2cnccc12" and its minimal effective concentration for platelets on solid phase fibrinogen was 100 to 250 µM

I looked up "CCOC(=O)c1c(CNC(=N)N)n(C)c2cc(-c3cccc4ccccc34)c(Cl)cc12" and its minimal effective concentration for platelets on solid phase fibrinogen was 10 to 100 µM

I looked up "CCOC(=O)c1c(CNC(=N)N)sc2cc(-c3cccc4ccccc34)c(OC3CCCC3)cc12" and its minimal effective concentration for platelets on solid phase fibrinogen was 10 to 100 µM

I looked up CCOC(=O)c1c(CSC(=N)N)n(C)c2cc(C3CC4CCC3C4)ccc12 (stereo not drawn) and its minimal effective concentration for platelets on solid phase fibrinogen was 10 to 100 µM

I looked up "CCOC(=O)c1c(CNC(=N)N)n(C)c2cc(C3=CCOc4ccccc43)ccc12" and its minimal effective concentration for platelets on solid phase fibrinogen was 10 to 100 µM

I looked up "CCOC(=O)c1c(CNC(=N)N)sc2cc(-c3cccc4ccccc34)ccc12" and its minimal effective concentration for platelets on solid phase fibrinogen was 100 to 250 µM

I looked up "CCOC(=O)c1c(CNC(=N)N)sc2cc(-c3cccc4ccccc34)c(Oc3ccncc3)cc12" and its minimal effective concentration for platelets on solid phase fibrinogen was 10 to 100 µM

I looked up "CCOC(=O)c1c(CSC(=N)N)n(C)c2cc(C3CCC(F)(F)CC3)ccc12" and its minimal effective concentration for platelets on solid phase fibrinogen was 100 to 250 µM

I looked up "CCOC(=O)c1c(CNC(=N)N)n(C)c2cc(-c3cccc4cc(Cl)ccc34)ccc12" and its minimal effective concentration for platelets on solid phase fibrinogen was 10 to 100 µM

I looked up "CCOC(=O)c1c(CNC(=N)N)n(C)c2cc(-c3cc(C)cc4ccccc34)ccc12" and its minimal effective concentration for platelets on solid phase fibrinogen was 10 to 100 µM

I looked up "CCOC(=O)c1c(CNC(=N)N)n(C)c2cc(C3=CCCC3)ccc12" and its minimal effective concentration for platelets on solid phase fibrinogen was 10 to 100 µM

I looked up "Cn1c(CNC(=N)N)c(C#N)c2ccc(-c3cccc4ccccc34)cc21" and its minimal effective concentration for platelets on solid phase fibrinogen was 10 to 100 µM

I looked up "CCOC(=O)c1c(CNC(=N)N)n(C)c2cc(-c3cccc4ccccc34)c(Br)cc12" and its minimal effective concentration for platelets on solid phase fibrinogen was 10 to 100 µM

---

system: platelets on solid phase fibrinogen; assay: Effect of compound on platelet stretching on solid phase fibrinogen; format: cell-based; conditions: 1 h, washed platelets, incubated 60 min at 37° C., read-out: Concentration range for compounds that inhibit platelet stretching on fibrinogen
So I've got a bunch of compounds here, and I need their minimal effective concentration values.

I looked up CCOC(=O)c1c(CNC(=N)N)n(C)c2nc(Cl)ccc12 [SYY-C020] and its minimal effective concentration for platelets on solid phase fibrinogen was 100 to 250 µM

I looked up CCOC(=O)c1c(CNC(=N)N)n(C)c2cc(-c3cccc4ncccc34)ccc12 [SYY-C067] and its minimal effective concentration for platelets on solid phase fibrinogen was 10 to 100 µM

I looked up CCOC(=O)c1c(CNC(=N)N)oc2cc(-c3cccc4ccccc34)ccc12 [SYY-C106] and its minimal effective concentration for platelets on solid phase fibrinogen was 100 to 250 µM

I looked up CCOC(=O)c1c(CNC(=N)N)n(C)c2cc(Cl)c(-c3cccc4ccccc34)cc12 [SYY-C118] and its minimal effective concentration for platelets on solid phase fibrinogen was 10 to 100 µM

I looked up CCOC(=O)c1c(CNC(=N)N)n(C)c2cc(-c3cccc4ccc(C)cc34)ccc12 [SYY-C087] and its minimal effective concentration for platelets on solid phase fibrinogen was 100 to 250 µM

I looked up CCOC(=O)c1c(CNC(=N)N)sc2cc(-c3cccc4ccccc34)c(C3CCCCC3)cc12 [SYY-C122] and its minimal effective concentration for platelets on solid phase fibrinogen was 10 to 100 µM

I looked up CCOC(=O)c1c(CNC(=N)N)n(C)c2cc(-c3cccc4ccccc34)c(C3=CCCC3)cc12 [SYY-C111] and its minimal effective concentration for platelets on solid phase fibrinogen was 100 to 250 µM

I looked up CCOC(=O)c1c(CNC(=N)N)n(C)c2cc(-c3cccc4cccc(Cl)c34)ccc12 [SYY-C095] and its minimal effective concentration for platelets on solid phase fibrinogen was 10 to 100 µM

I looked up CCOC(=O)c1c(CNC(=N)N)n(C)c2ncc(OC3CCCC3)cc12 [SYY-C010] and its minimal effective concentration for platelets on solid phase fibrinogen was 10 to 100 µM

I looked up Cn1c(CNC(=N)N)c(C(N)=O)c2ccc(-c3cccc4ccccc34)cc21 [SYY-C101] and its minimal effective concentration for platelets on solid phase fibrinogen was 10 to 100 µM

I looked up CCOC(=O)c1c(CNC(=N)N)sc2cc(-c3cccc4ccccc34)c(C3=CCCC3)cc12 [SYY-C123] and its minimal effective concentration for platelets on solid phase fibrinogen was 100 to 250 µM

I looked up CC(=O)Nc1c(CNC(=N)N)n(C)c2cc(-c3cccc4ccccc34)ccc12 [SYY-C105] and its minimal effective concentration for platelets on solid phase fibrinogen was 10 to 100 µM

I looked up CCOC(=O)c1c(CSC(=N)N)n(C)c2cc(C3CCCCC3)ccc12 [SYY-C050] and its minimal effective concentration for platelets on solid phase fibrinogen was 10 to 100 µM

I looked up CCOC(=O)c1c(CNC(=N)N)n(C)c2ccccc12 [SYY-C016] and its minimal effective concentration for platelets on solid phase fibrinogen was 10 to 100 µM

I looked up CCOC(=O)c1c(CNC(=N)N)n(C)c2cc(-c3cccc4cnccc34)ccc12 [SYY-C074] and its minimal effective concentration for platelets on solid phase fibrinogen was 10 to 100 µM

I looked up CCOC(=O)c1c(CNC(=N)N)sc2cc(-c3cccc4ccccc34)c(C3CCCc4ccccc43)cc12 (centres unmarked) [SYY-C131] and its minimal effective concentration for platelets on solid phase fibrinogen was 100 to 250 µM

I looked up CN(C)C(=O)c1c(CNC(=N)N)n(C)c2cc(-c3cccc4ccccc34)ccc12 [SYY-C100] and its minimal effective concentration for platelets on solid phase fibrinogen was 100 to 250 µM

I looked up CCOC(=O)c1c(CNC(=N)N)n(C)c2ccc(-c3ccccc3)cc12 [SYY-C028] and its minimal effective concentration for platelets on solid phase fibrinogen was 10 to 100 µM

I looked up CCOC(=O)c1c(CNC(=N)N)sc2cc(-c3cccc4ccccc34)c(C3=CCCc4ccccc43)cc12 [SYY-C130] and its minimal effective concentration for platelets on solid phase fibrinogen was 100 to 250 µM

I looked up COc1ccc2c(n1)c(C#N)c(CNC(=N)N)n2C [SYY-C004] and its minimal effective concentration for platelets on solid phase fibrinogen was 100 to 250 µM

I looked up CCOC(=O)c1c(CNC(=N)N)sc2cc(-c3cccc4ccccc34)c(C3CCCC3)cc12 [SYY-C121] and its minimal effective concentration for platelets on solid phase fibrinogen was 100 to 250 µM

I looked up CCOC(=O)c1c(CNC(=N)N)n(C)c2ccc(O)nc12 [SYY-C006] and its minimal effective concentration for platelets on solid phase fibrinogen was 10 to 100 µM

I looked up CCOC(=O)c1c(CNC(=N)N)n(C)c2cc(C3=CCCC3)c(-c3cccc4ccccc34)cc12 [SYY-C116] and its minimal effective concentration for platelets on solid phase fibrinogen was 10 to 100 µM

I looked up CCOC(=O)c1c(CSC(=N)N)n(C)c2cc(-c3cccc4ccccc34)ccc12 [SYY-C042] and its minimal effective concentration for platelets on solid phase fibrinogen was 10 to 100 µM

I looked up CCOC(=O)c1c(CNC(=N)N)n(C)c2cc(-c3cccc4cc(C)ccc34)ccc12 [SYY-C080] and its minimal effective concentration for platelets on solid phase fibrinogen was 10 to 100 µM

I looked up CCOC(=O)c1c(CNC(=N)N)sc2cc(-c3cccc4ccccc34)c(C3=CCCCC3)cc12 [SYY-C124] and its minimal effective concentration for platelets on solid phase fibrinogen was 10 to 100 µM

I looked up CCOC(=O)c1c(CNC(=N)N)n(-c2ccccc2)c2ccccc12 [SYY-C030] and its minimal effective concentration for platelets on solid phase fibrinogen was 100 to 250 µM

I looked up CCOC(=O)c1c(CNC(=N)N)n(C)c2ccc(-c3ccc4ccccc4c3)cc12 [SYY-C065] and its minimal effective concentration for platelets on solid phase fibrinogen was 10 to 100 µM

I looked up CCOC(=O)c1c(CNC(=N)N)n(C)c2cc(Br)c(OC3CCCC3)nc12 [SYY-C008] and its minimal effective concentration for platelets on solid phase fibrinogen was 100 to 250 µM

I looked up CCOC(=O)c1c(CNC(=N)N)n(C)c2ccc(OC)nc12 [SYY-C001] and its minimal effective concentration for platelets on solid phase fibrinogen was 10 to 100 µM

I looked up CCOC(=O)c1c(CSC(=N)N)n(C)c2cc(-c3ccc4ccccc4c3)ccc12 [SYY-C043] and its minimal effective concentration for platelets on solid phase fibrinogen was 100 to 250 µM

I looked up CCOC(=O)c1c(CNC(=N)N)n(C)c2cc(-c3cccc4c(Cl)cccc34)ccc12 [SYY-C084] and its minimal effective concentration for platelets on solid phase fibrinogen was 10 to 100 µM

I looked up CCOC(=O)c1c(CNC(=N)N)n(C)c2cc(-c3ccc(Cl)c4ccccc34)ccc12 [SYY-C083] and its minimal effective concentration for platelets on solid phase fibrinogen was 100 to 250 µM

I looked up CCOC(=O)c1c(CNC(=N)N)n(C)c2cc(C3=CCCc4ccccc43)ccc12 [SYY-C068] and its minimal effective concentration for platelets on solid phase fibrinogen was 100 to 250 µM

I looked up CCOC(=O)c1c(CNC(=N)N)n(C)c2cc(C3CC4CCC3C4)ccc12 (centres unmarked) [SYY-C069] and its minimal effective concentration for platelets on solid phase fibrinogen was 10 to 100 µM
